readout_type: MIC (µg/mL)
Give just the number in µg/mL; leave the unit off.

Enquiry: Write MIC of CC(C)(O/N=C(\C(=O)N[C@@H]1C(=O)N2C(C(=O)[O-])=C(C[n+]3ccccc3)CS[C@H]12)c1csc(N)n1)C(=O)O [CTZ, Ceftazidime, reference compound] ; system used: Klebsiella pneumoniae ATCC 10031
Return: 0.063

Enquiry: Write MIC of CCC[n+]1c(N)cc(N)nc1SCC1=C(C(=O)[O-])N2C(=O)C(NC(=O)/C(=N\O[C@@H](C)C(=O)O)c3csc(N)n3)[C@H]2SC1 (stereo partly drawn) [I-S-4] ; system used: Klebsiella pneumoniae ATCC 10031
Return: 0.031

Enquiry: Write MIC of Cc1c(N)nc(SCC2=C(C(=O)[O-])N3C(=O)C(NC(=O)/C(=N\O[C@H](C)C(=O)O)c4csc(N)n4)[C@H]3SC2)[n+](C)c1N (stereo partly drawn) [I-R-6] ; system used: Klebsiella pneumoniae ATCC 10031
Return: 0.063

Enquiry: Write MIC of CCC[n+]1c(N)cc(N)nc1SCC1=C(C(=O)[O-])N2C(=O)C(NC(=O)/C(=N\O[C@H](C)C(=O)O)c3csc(N)n3)[C@H]2SC1 (stereo partly drawn) [I-R-4] ; system used: Klebsiella pneumoniae ATCC 10031
Return: 0.063

Enquiry: Write MIC of Cc1c(N)nc(SCC2=C(C(=O)[O-])N3C(=O)C(NC(=O)/C(=N\O[C@H](C)C(=O)O)c4csc(N)n4)[C@H]3SC2)[n+](N)c1N (stereo partly drawn) [I-R-7] ; system used: Klebsiella pneumoniae ATCC 10031
Return: 0.063

Enquiry: Write MIC of CC[n+]1c(N)cc(N)nc1SCC1=C(C(=O)[O-])N2C(=O)C(NC(=O)/C(=N\O[C@@H](C)C(=O)O)c3csc(N)n3)[C@H]2SC1 (stereo partly drawn) [I-S-3] ; system used: Klebsiella pneumoniae ATCC 10031
Return: 0.031

Enquiry: Write MIC of C[C@@H](O/N=C(\C(=O)NC1C(=O)N2C(C(=O)[O-])=C(CSc3nc(N)cc(N)[n+]3C)CS[C@H]12)c1csc(N)n1)C(=O)O (stereo partly drawn) [I-R-2] ; system used: Klebsiella pneumoniae ATCC 10031
Return: 0.031

Enquiry: Write MIC of CC[n+]1c(N)cc(N)nc1SCC1=C(C(=O)[O-])N2C(=O)C(NC(=O)/C(=N\O[C@H](C)C(=O)O)c3csc(N)n3)[C@H]2SC1 (stereo partly drawn) [I-R-3] ; system used: Klebsiella pneumoniae ATCC 10031
Return: 0.031

Enquiry: Write MIC of Cc1c(N)nc(SCC2=C(C(=O)[O-])N3C(=O)C(NC(=O)/C(=N\O[C@@H](C)C(=O)O)c4csc(N)n4)C3SC2)[n+](C)c1N (stereo partly drawn) [I-S-6] ; system used: Klebsiella pneumoniae ATCC 10031
Return: 0.031

Enquiry: Write MIC of C[C@H](O/N=C(\C(=O)NC1C(=O)N2C(C(=O)[O-])=C(CSc3nc(N)cc(N)[n+]3C)CS[C@H]12)c1csc(N)n1)C(=O)O (stereo partly drawn) [I-S-2] ; system used: Klebsiella pneumoniae ATCC 10031
Return: 0.016

Enquiry: Write MIC of C[C@@H](O/N=C(\C(=O)NC1C(=O)N2C(C(=O)[O-])=C(CSc3nc(N)cc(N)[n+]3N)CS[C@H]12)c1csc(N)n1)C(=O)O (stereo partly drawn) [I-R-1] ; system used: Klebsiella pneumoniae ATCC 10031
Return: 0.031

Enquiry: Write MIC of Cc1c(N)nc(SCC2=C(C(=O)[O-])N3C(=O)C(NC(=O)/C(=N\O[C@@H](C)C(=O)O)c4csc(N)n4)[C@H]3SC2)[n+](N)c1N (stereo partly drawn) [I-S-7] ; system used: Klebsiella pneumoniae ATCC 10031
Return: 0.016

Enquiry: Write MIC of C[C@@H](O/N=C(\C(=O)NC1C(=O)N2C(C(=O)[O-])=C(CSc3nc(N)cc(N)[n+]3-c3ccccc3)CSC12)c1csc(N)n1)C(=O)O (stereo partly drawn) [I-R-5] ; system used: Klebsiella pneumoniae ATCC 10031
Return: 0.063

Enquiry: Write MIC of C[C@H](O/N=C(\C(=O)NC1C(=O)N2C(C(=O)[O-])=C(CSc3nc(N)cc(N)[n+]3-c3ccccc3)CS[C@H]12)c1csc(N)n1)C(=O)O (stereo partly drawn) [I-S-5] ; system used: Klebsiella pneumoniae ATCC 10031
Return: 0.13

Enquiry: Write MIC of C[C@H](O/N=C(\C(=O)NC1C(=O)N2C(C(=O)[O-])=C(CSc3nc(N)cc(N)[n+]3N)CS[C@H]12)c1csc(N)n1)C(=O)O (stereo partly drawn) [I-S-1] ; system used: Klebsiella pneumoniae ATCC 10031
Return: 0.031
